Catalogue of pKd values
target: HSA (Homo sapiens, UniProt P02768); construct: HSA and Tris were obtained from Sigma-Aldrich, St. Louis, MI, USA; purchased Sigma-Aldrich; assay: Fluorescence quenching / fluorescence–thermodynamic experiment with HSA; type: binding; conditions: Ka, 298 K; binding constant, double logarithmic equation
Sequence (P02768 25-609): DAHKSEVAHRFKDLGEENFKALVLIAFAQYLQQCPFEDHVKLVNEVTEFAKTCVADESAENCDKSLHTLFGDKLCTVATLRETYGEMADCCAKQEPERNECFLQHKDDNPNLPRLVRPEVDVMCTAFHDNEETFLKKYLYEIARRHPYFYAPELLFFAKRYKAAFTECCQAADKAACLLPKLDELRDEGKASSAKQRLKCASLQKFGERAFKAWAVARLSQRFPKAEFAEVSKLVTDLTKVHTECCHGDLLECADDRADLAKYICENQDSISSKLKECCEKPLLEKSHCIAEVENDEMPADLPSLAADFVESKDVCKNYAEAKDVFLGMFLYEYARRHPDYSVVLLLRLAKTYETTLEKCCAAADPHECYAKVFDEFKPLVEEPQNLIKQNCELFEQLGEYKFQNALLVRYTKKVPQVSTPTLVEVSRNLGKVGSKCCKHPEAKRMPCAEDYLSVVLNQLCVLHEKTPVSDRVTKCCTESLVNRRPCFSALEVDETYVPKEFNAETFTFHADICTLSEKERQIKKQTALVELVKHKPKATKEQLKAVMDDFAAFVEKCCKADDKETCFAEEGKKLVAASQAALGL
Lab note — pKd values are minus log10 of concentrations in M.

CC(C)(c1cc(Cl)c(O)c(Cl)c1)c1cc(Cl)c(O)c(Cl)c1
5.31

Now, please, on to the next compound.
// pKd lookup, compound = `CC(C)(c1cc(Br)c(O)c(Br)c1)c1cc(Br)c(O)c(Br)c1` , result: 5.80
